Hello, the source for this data is ChEMBL document CHEMBL1142387, in case you need it.

experimentalSystem: Transcriptional activator protein LuxR (Aliivibrio fischeri)
assayOverview: Antagonist activity at LuxR in Vibrio fischeri assessed as inhibition of N-3-oxos-hexanoyl-L-homoserine lactone induced luminescence
pIC50: −log10 of the molar value.
recordedMetric: pIC50

Take a look at these entries with their results.
>  <molecule>
O=C1OCCC1NS(=O)(=O)NCCCc1ccccc1 (stereo unspecified)

>  <valueObserved>
5.03

$$$$
>  <molecule>
O=C1OCCC1NS(=O)(=O)NCCc1ccccc1 (stereo unspecified)

>  <valueObserved>
4.89

$$$$

1: CCCCCS(=O)(=O)NC1CCOC1=O (stereo unspecified)
2: O=C1OCCC1NS(=O)(=O)NCc1ccccc1 (stereo unspecified)
3: O=C1OCCC1NS(=O)(=O)NCCCCc1ccccc1 (stereo unspecified)
-- ask Could you please sort these 3 entries by pIC50 from high to low? Response format: the labels, sorted as the prompt asks.
-- reply 1, 2, 3

1: CCCCNS(=O)(=O)NC1CCOC1=O (stereo unspecified)
2: CCCCCCCCCCNS(=O)(=O)NC1CCOC1=O (stereo unspecified)
-- ask // returns 1 or 2 , whichever has the lower pIC50 // caller expects the label of the chosen entry
-- reply 2

====

experimentalSystem: Transcriptional activator protein LuxR (Aliivibrio fischeri)
Sequence (P12746 whole entry): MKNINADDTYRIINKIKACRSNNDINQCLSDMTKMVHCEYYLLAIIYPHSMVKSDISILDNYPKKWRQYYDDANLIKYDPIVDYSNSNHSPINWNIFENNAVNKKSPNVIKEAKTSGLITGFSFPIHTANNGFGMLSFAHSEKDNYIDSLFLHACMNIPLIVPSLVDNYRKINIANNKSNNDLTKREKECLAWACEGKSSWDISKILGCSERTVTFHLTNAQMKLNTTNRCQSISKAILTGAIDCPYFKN
assayOverview: Antagonist activity at LuxR in Vibrio fischeri assessed as inhibition of N-3-oxos-hexanoyl-L-homoserine lactone induced luminescence
pIC50: −log10 of the molar value.
recordedMetric: pIC50

Take a look at these entries with their results.
>  <molecule>
CCCCCCCCNS(=O)(=O)NC1CCOC1=O (centres undefined)

>  <recordedMetric>
pIC50

>  <valueObserved>
5.14

$$$$
>  <molecule>
CCCCNC(=O)NC1CCOC1=O (centres undefined)

>  <recordedMetric>
pIC50

>  <valueObserved>
5.30

$$$$

I: CCCCCCNS(=O)(=O)NC1CCOC1=O (centres undefined)
II: CCCCCNS(=O)(=O)NC1CCOC1=O (centres undefined)
-- ask // returns I or II , whichever has the lower pIC50 // caller expects the label of the chosen entry
-- reply I
(I: 5.30, II: 5.70)
